assay.target: Nuclear receptor coactivator 1 (Homo sapiens) (UniProt Q15788)
Sequence (Q15788 whole entry, looked up): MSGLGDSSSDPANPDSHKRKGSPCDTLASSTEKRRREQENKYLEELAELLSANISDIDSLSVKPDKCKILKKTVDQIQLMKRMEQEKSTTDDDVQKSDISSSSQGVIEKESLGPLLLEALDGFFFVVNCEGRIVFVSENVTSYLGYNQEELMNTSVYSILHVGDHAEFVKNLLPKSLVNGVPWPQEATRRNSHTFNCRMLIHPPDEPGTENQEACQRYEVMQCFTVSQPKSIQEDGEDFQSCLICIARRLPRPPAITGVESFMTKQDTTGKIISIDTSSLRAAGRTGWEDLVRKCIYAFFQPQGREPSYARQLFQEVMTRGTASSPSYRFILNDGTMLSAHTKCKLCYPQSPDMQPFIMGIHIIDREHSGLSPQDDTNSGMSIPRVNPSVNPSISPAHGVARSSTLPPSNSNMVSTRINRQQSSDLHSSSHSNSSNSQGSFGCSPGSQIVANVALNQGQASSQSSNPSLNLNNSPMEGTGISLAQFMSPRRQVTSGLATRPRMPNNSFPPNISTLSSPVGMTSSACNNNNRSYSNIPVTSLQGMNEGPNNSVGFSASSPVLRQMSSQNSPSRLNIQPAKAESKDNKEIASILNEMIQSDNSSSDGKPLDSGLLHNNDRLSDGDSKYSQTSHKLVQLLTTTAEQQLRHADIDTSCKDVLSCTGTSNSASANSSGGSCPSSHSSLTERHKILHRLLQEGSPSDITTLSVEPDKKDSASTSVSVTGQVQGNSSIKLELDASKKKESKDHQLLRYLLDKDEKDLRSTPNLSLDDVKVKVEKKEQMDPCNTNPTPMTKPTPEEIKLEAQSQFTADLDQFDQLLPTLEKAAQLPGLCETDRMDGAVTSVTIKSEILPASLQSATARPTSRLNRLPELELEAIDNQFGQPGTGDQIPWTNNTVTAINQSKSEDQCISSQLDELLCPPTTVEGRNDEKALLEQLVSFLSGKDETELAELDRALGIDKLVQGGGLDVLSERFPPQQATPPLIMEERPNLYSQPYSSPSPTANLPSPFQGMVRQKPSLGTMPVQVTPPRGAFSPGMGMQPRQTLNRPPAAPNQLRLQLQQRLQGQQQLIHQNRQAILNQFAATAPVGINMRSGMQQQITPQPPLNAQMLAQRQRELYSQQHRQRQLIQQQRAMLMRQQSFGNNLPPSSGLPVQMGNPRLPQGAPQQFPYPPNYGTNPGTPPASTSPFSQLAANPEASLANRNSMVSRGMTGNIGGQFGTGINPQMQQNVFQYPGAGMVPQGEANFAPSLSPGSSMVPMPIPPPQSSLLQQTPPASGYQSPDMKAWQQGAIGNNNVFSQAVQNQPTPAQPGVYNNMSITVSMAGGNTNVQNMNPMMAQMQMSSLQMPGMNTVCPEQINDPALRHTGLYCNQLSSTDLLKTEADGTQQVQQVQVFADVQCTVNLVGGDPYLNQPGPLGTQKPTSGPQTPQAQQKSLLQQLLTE
method: SRC1 coactivator transcriptional activity inhibitors, confirmation, cell-based, luminescence, quadruplicate (AID 588820);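 further: 0% = DMSO wells and 100% = gossypol 36 µM treated wells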
assay.context: HEK293 GAL4-SRC1 luciferase reporter, at 3.6 µM, stronger effect = higher value
The threshold is inclusive: inhibition of exactly 10% counts as y; values below receive n.

molecule	class
COc1ccc(C(c2nnnn2Cc2ccccc2)N2CCC(n3c(=O)[nH]c4ccccc43)CC2)cc1 (stereo not drawn)	n
CNC(=O)c1cccn(Cc2cccc(C(F)(F)F)c2)c1=O	n
O=c1[nH]c2ccccc2n1C1CCN(C(c2ccccc2OC(F)(F)F)c2nnnn2-c2ccc3c(c2)OCCO3)CC1 (stereo not drawn)	n
COC(=O)C12OCC34C(CC5C(C)=C(O)C(=O)CC5(C)C3C(O)C1O)OC(=O)C(OC(=O)/C=C(\C)C(C)C)C24 (stereo not drawn)	y
Cc1ccc(-c2cc(-c3ccc(C)cc3)[n+](C)o2)cc1	n
CCCc1nc2ccc(Br)cc2c(=O)n1-c1ccc([N+](=O)[O-])c(C(F)(F)F)c1	y
COc1ccc(-n2nnnc2C(c2cccc(OC)c2OC)N2CCC(n3c(=O)[nH]c4ccccc43)CC2)cc1 (stereo not drawn)	n
Cc1cccc(-n2c(C)nc3ccccc3c2=O)c1C	n
C[C@@H]1O[C@@H](O[C@H]2C[C@@H](O)[C@]3(CO)[C@@H]4C(CC[C@]3(O)C2)[C@@]2(O)CC[C@H](C3COC(=O)C3)[C@@]2(C)C[C@H]4O)[C@H](O)[C@H](O)[C@H]1O (stereo partly drawn)	n
C[C@]12CCC3C(CCC4=CC(O)CC[C@@]43/C=N/O)C1(O)CCC2C1=CC(=O)OC1 (stereo partly drawn)	y
CCN(CC)C(=O)c1ccc(NC(=O)c2ccc(-n3cncn3)c([N+](=O)[O-])c2)cc1	n
CNc1ccc2nc3ccccc3[n+](C)c2c1	n
O=c1[nH]c2ccccc2n1C1CCN(C(c2cccs2)c2nnnn2Cc2ccccc2)CC1 (stereo not drawn)	n
CC(C)CNc1c2c(nc3ccccc13)CCC2	n
C[C@@H]1O[C@@H](O[C@@H]2C=C3CCC4C(CC[C@]5(C)[C@@H](c6ccc(=O)oc6)CC[C@]45O)[C@@]3(C)CC2)[C@H](O)[C@H](O)[C@H]1O (stereo partly drawn)	y
Nc1ncnc2c1ccn2[C@@H]1O[C@H](CO)[C@@H](O)[C@H]1O	y
COc1ccc2c(c1)[nH]c1c(C)nccc12	y
CCC(C)NC(=O)CCC(=O)OC1O[C@H]2OC3(C)CC[C@H]4[C@H](C)CCC(C1C)C24OO3 (stereo partly drawn)	y
C=C1C(=O)[C@@]23C[C@H]4[C@@H]5[C@@]6(C)CCC[C@@]57[C@@H]2[C@@H](O)[C@@H]1C[C@H]3[C@H]7N4C6	y
N#Cc1c(Br)n(C2OC(CO)C(O)C2O)c2ncnc(N)c12 (stereo not drawn)	y
COc1ccc(-c2cc(-c3ccccc3)[n+](C)c(-c3ccccc3)c2)cc1	y
CCOc1ccc(-c2cc(C)[n+](CCc3ccc(OC)c(OC)c3)c(-c3ccc(OCC)cc3)c2)cc1	y
O=c1[nH]c2ccccc2n1C1CCN(C(c2ccnc3ccccc23)c2nnnn2-c2ccc3c(c2)OCCO3)CC1 (stereo not drawn)	n
C=Cc1cc(OC)c2c(c1)c(=O)oc1c2cc(OC)c2c(O)ccc(C3OC(C)C(O)C(C)(O)C3O)c21 (stereo not drawn)	n
CC(=CCOc1ccc2ccc(=O)oc2c1)C1=CC(=O)C(C)(C)O1	y
COc1ccc(-n2nnnc2C(c2cccs2)N2CCC(n3c(=O)[nH]c4ccccc43)CC2)cc1 (stereo not drawn)	n
COc1cc2c(cc1O)C[C@H]1NCCc3cc4c(c-2c31)OCO4	y
COc1cc2cc(C(=O)N3CC(COS(C)(=O)=O)c4ccc(O)cc43)[nH]c2c(OC)c1OC (stereo not drawn)	y
CCC1(OC(=O)CN)C(=O)OCc2c1cc1n(c2=O)Cc2cc3ccccc3nc2-1 (stereo not drawn)	y
CC1CCOC(=O)C=CC=CC(=O)OC2CC3OC4C5OC5(C)C(O)CC4(COC(=O)C1O)C2(C)C31CO1 (stereo not drawn)	y
Cc1ccc(C[n+]2c(-c3ccc(C)cc3)cc(-c3ccc(C)cc3)cc2-c2ccc(C)cc2)cc1	y
CC(=O)c1cn(Cc2ccccc2F)c2ccccc12	n
CCCCCCCCCCCCn1ccc(=N)cc1	y
O=c1[nH]c2ccccc2n1C1CCN(C(c2cc3ccccc3o2)c2nnnn2-c2ccc3c(c2)OCCO3)CC1 (stereo not drawn)	n
Cc1c2ccncc2c(C)c2c1[nH]c1ccccc12	y
CCCCn1nnnc1C(CCc1ccccc1)N1CCC(n2c(=O)[nH]c3ccccc32)CC1 (stereo not drawn)	n
Cc1ccc(-c2cc(-c3ccc(C)cc3)[n+](-c3ccccc3)c(-c3ccc(C)cc3)c2)cc1	y

----------
method: VP16 transactivation inhibitors, counter-screen for SRC1 inhibitor project, cell-based, luminescence, high throughput (AID 588824)
assay.context: cell-based VP16 transactivation luciferase luminescence; at 3.6 µM; stronger effect = higher value

molecule	inhibition, %
NC(=S)c1cn(C2OC(CO)C(O)C2O)c2ncnc(N)c12 (centres undefined)	96.2
COc1ccc(-n2nnnc2C(CCc2ccccc2)N2CCC(n3c(=O)[nH]c4ccccc43)CC2)cc1 (centres undefined)	9.95
COc1cc2c(cc1O)C[C@H]1NCCc3cc4c(c-2c31)OCO4	40.2
COc1ccc(-n2nnnc2C(c2cc3ccccc3o2)N2CCC(n3c(=O)[nH]c4ccccc43)CC2)cc1 (centres undefined)	6.66
N#Cc1cn(C2OC(CO)C(O)C2O)c2ncnc(N)c12 (centres undefined)	89.7
C[C@@H]1O[C@@H](O[C@@H]2C=C3CCC4C(CC[C@]5(C)[C@@H](c6ccc(=O)oc6)CC[C@]45O)[C@@]3(C)CC2)[C@H](O)[C@H](O)[C@H]1O (some centres undefined)	89.9
Cc1[nH]nc2ccc(-c3cncc(OC[C@@H](N)Cc4c[nH]c5ccccc45)c3)cc12	97.3
O=[N+]([O-])c1ccc(N(CCO)CCO)c2c1no[n+]2[O-]	14.5
Cc1cccc(C)c1-n1nnnc1C(c1cccs1)N1CCC2(CC1)C(=O)NCN2c1ccccc1 (centres undefined)	4.87
CC(=O)OC1CC(OC2C(O)CC(OC3C(O)CC(OC4CCC5(C)C(CCC6C5CC(O)C5(C)C(C7=CC(=O)OC7)CCC65O)C4)OC3C)OC2C)OC(C)C1OC1OC(CO)C(O)C(O)C1O (centres undefined)	86.5
c1ccc(-c2cc(-c3ccccc3)[n+](-c3ccccc3)c(-c3ccccc3)c2)cc1	81.6
CSCCC(c1nnnn1-c1ccc2c(c1)OCCO2)N1CCC(n2c(=O)[nH]c3ccccc32)CC1 (centres undefined)	20.9
O=c1[nH]c2ccccc2n1C1CCN(C(CCc2ccccc2)c2nnnn2Cc2ccccc2)CC1 (centres undefined)	36.7
CCC(c1nnnn1-c1ccc2c(c1)OCCO2)N1CCC(n2c(=O)[nH]c3ccccc32)CC1 (centres undefined)	9.85
O=[N+]([O-])c1ccc(N2CCOCC2)c2c1no[n+]2[O-]	62.2
O=c1[nH]c2ccccc2n1C1CCN(C(c2ccccc2OC(F)(F)F)c2nnnn2Cc2ccccc2)CC1 (centres undefined)	0.5
C/C(=N\Nc1ccccc1)c1c(O)[nH]c(=O)[nH]c1=O	13.6
O=c1[nH]c2ccccc2n1C1CCN(C(c2ccnc3ccccc23)c2nnnn2-c2ccc3c(c2)OCCO3)CC1 (centres undefined)	8.7
CCOc1ccc(-c2cc(C)[n+](CCc3ccc(OC)c(OC)c3)c(-c3ccc(OCC)cc3)c2)cc1	73.4

----------
method: StAR promoter reporter inhibitors, counter-screen for LRH-1 inverse agonist project, cell-based, luminescence, high throughput (AID 651611)
assay.context: StAR promoter luciferase reporter counterscreen, at 3.6 µM
Activity calls are given as the source filed them. Cut-off read from the data, not from the text of the source: active = inhibition above about 28%; inactive = the rest.
Outcomes: YES = active, NO = inactive

molecule	class
CCOc1ccc(-c2cc(C)[n+](CCN(CC)CC)c(-c3ccc(OCC)cc3)c2)cc1	YES
CCOC(=O)[C@]12Cc3cc(C)ccc3[C@H]1N(C1CCCCC1)C(=O)c1cc(OC)ccc12	YES
COc1cc2nc(CN3CC=C(c4ccccc4)CC3)[nH]c(=O)c2cc1OC	YES
CCC(C)C(NC(=O)CCCNC(=O)CCC(=O)OC1O[C@H]2OC3(C)CC[C@H]4[C@H](C)CCC(C1C)C24OO3)C(=O)O (some centres undefined)	YES
C[C@@H]1O[C@@H](O[C@@H]2C=C3CCC4C(CC[C@]5(C)[C@@H](c6ccc(=O)oc6)CC[C@]45O)[C@@]3(C)CC2)[C@H](O)[C@H](O)[C@H]1O (some centres undefined)	YES
CC1=C(O)C(=O)C=C2C1=CC=C1C2(C)CCC2(C)C3CC(C)(C(=O)O)CCC3(C)CCC12C (centres undefined)	YES
COC(=O)C(C)Oc1cc(C)cc2oc(=O)c3c(c12)CCCC3 (centres undefined)	NO
Cc1ccccc1-n1c(/C=C/c2ccccn2)nc2ccccc2c1=O	YES
CCC(C)NC(=O)CCC(=O)OC1O[C@H]2OC3(C)CC[C@H]4[C@H](C)CCC(C1C)C24OO3 (some centres undefined)	YES
